- SYSTEM TESTED: HDAC6 (Homo sapiens)
- Sequence (Q9UBN7 1-1215): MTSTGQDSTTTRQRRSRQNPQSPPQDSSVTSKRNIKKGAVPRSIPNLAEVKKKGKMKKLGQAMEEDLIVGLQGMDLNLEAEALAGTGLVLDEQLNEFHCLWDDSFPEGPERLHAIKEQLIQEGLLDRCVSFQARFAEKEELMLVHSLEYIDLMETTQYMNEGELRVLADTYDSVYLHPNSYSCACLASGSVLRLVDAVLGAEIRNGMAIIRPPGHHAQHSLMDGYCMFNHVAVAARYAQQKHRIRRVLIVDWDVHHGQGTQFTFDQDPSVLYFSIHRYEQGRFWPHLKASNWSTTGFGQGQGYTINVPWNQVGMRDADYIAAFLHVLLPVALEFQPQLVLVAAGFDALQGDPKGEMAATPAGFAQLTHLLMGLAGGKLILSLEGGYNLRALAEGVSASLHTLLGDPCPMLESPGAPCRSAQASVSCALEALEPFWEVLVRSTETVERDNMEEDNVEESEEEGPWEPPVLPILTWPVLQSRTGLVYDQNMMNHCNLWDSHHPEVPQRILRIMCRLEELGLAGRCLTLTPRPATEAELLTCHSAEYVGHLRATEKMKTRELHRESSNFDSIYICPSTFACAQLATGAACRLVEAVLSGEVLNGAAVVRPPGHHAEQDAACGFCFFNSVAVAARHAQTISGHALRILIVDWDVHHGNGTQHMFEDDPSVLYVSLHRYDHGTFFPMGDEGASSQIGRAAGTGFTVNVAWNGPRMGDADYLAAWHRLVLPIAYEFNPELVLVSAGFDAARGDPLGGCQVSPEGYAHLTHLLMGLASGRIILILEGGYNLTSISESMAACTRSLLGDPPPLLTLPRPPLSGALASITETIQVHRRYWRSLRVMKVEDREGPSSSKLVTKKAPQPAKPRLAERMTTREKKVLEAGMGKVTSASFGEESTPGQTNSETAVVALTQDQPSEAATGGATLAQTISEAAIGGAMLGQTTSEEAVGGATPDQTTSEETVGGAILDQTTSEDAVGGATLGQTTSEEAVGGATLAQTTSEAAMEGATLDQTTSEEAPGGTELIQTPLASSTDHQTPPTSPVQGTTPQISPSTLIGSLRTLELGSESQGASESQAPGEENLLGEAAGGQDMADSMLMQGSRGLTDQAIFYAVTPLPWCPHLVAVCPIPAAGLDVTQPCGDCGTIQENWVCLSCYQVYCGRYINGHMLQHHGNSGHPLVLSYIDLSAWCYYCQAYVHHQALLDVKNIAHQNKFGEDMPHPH
pIC50: −log10 of the molar value.
PROPERTY NAME: pIC50

{"STRUCTURE SMILES STRING": "O=C(CCCCCNC(=O)c1ccccc1O)Nc1ccccc1", "REPORTED VALUE": "< 4.00"}

* * *

- SYSTEM TESTED: HDAC4 (Homo sapiens, UniProt P56524)
- Sequence (P56524 627-1084 limits assumed): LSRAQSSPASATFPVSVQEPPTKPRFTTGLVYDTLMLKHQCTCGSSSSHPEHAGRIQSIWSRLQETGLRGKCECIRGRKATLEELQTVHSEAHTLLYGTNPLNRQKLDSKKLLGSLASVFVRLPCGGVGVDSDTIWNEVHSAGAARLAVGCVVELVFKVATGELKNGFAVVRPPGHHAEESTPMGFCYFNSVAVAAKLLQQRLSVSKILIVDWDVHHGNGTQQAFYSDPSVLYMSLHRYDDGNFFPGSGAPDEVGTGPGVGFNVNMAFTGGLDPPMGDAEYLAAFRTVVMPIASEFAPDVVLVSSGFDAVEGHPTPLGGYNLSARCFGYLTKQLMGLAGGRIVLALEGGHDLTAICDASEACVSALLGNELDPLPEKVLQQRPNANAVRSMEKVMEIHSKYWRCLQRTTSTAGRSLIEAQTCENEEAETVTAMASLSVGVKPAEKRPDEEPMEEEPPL
pIC50: −log10 of the molar value.

{"MOLECULE": "O=C(CCCCCNC(=O)c1ccccc1O)Nc1ccccc1 [Compound 5]", "pIC50": "< 4.00"}

* * *

- SYSTEM TESTED: HDAC1 (Homo sapiens, UniProt Q13547)
- Sequence (Q13547 whole entry): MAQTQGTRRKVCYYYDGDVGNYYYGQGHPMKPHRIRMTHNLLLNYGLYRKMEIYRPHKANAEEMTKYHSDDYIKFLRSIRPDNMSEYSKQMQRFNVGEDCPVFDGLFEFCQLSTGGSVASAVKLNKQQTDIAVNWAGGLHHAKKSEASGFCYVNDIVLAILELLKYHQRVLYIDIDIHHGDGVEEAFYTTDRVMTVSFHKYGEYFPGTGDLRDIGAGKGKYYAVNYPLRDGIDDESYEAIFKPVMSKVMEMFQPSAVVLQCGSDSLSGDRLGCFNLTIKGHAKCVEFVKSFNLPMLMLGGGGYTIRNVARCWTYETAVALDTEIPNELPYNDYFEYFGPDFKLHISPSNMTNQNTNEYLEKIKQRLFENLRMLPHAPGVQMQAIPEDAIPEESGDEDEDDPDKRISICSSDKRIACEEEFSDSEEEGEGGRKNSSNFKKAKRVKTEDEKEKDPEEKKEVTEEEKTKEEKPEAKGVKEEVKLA
pIC50: −log10 of the molar value.

{"STRUCTURE SMILES STRING": "O=C(CCCCCNC(=O)c1ccccc1O)Nc1ccccc1", "SYSTEM TESTED": "HDAC1 (Homo sapiens, UniProt Q13547)", "pIC50": 4.65}
